These data points were gathered from PubChem BioAssay AID1399.

- ASSAYED SYSTEM: Signal transducer and activator of transcription 3 (Homo sapiens) (UniProt P40763)
- EXPERIMENT SUMMARY: blockers of STAT3 signaling, concentration series – cell-based, dose response (AID 1399)
- CONDITION CONTEXT: human cell STAT3 reporter inhibition
MEASUREMENT KIND: IC50

See these solved cases before continuing.
| COMPOUND | MEASUREMENT KIND | RESULT VALUE |
| --- | --- | --- |
| O=C(Nc1nc(-c2ccc(Cl)s2)cs1)c1ccncc1 | IC50 | 4.01 µM |
| O=C1C2C3c4ccccc4C(c4ccccc43)[C@@H]2c2nc3ccccc3n21 (stereo partly specified) | IC50 | 4.51 µM |

Q) Given the entry `CCOc1ncccc1C(=O)OCC(=O)Nc1ccc(-c2nc3ccc(C)cc3s2)cc1` , what IC50 was observed with Signal transducer and activator of transcription 3 (Homo sapiens) (UniProt P40763)?
A) 3.25 µM
